Target: hFXR (Homo sapiens)
Sequence (Q96RI1 1-486): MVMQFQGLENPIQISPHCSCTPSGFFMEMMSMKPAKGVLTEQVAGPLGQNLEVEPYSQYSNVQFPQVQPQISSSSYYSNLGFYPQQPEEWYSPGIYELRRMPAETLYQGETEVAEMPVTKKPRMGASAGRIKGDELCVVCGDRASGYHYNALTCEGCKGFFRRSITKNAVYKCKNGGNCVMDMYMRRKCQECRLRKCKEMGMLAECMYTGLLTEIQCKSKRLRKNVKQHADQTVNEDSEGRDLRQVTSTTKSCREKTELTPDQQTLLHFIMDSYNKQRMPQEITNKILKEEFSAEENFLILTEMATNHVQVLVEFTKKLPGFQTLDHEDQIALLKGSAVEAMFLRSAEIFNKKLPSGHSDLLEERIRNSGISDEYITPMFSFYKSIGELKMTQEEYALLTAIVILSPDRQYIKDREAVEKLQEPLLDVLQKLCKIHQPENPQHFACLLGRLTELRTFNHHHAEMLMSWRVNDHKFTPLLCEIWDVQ
Sequence (P19793 1-462 partner): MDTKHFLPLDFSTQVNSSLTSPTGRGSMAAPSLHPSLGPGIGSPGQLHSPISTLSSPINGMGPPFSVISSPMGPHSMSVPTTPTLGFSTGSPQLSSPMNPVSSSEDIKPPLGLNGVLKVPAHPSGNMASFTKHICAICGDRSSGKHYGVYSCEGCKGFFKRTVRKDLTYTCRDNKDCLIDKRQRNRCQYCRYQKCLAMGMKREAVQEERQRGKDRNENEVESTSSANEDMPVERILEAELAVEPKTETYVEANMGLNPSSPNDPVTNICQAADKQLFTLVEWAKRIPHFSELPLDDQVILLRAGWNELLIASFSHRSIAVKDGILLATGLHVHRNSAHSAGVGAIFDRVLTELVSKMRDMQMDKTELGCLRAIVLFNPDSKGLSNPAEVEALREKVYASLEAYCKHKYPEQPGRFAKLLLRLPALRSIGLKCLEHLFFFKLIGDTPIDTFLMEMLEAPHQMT
Assay: In Vitro FXR Assay (TK): TK-ECRE-luc reporter in transfected CV-1 cells
Details: 18 hrs incubation, luminescence
Measurement kind: EC50

Prompt line: Report EC50, nothing else, for this molecule: COc1ccc(C23CCC(CN(c4cc(-c5cnn(C(C)C)c5)ccn4)C(=O)[C@H]4CC[C@H](OC(=O)NCCO)CC4)(CC2)CC3)cc1C [Compound 4.05]
Response line: ≤ 0.05 µM

Prompt line: Report EC50, nothing else, for this molecule: COc1ccc([C@H]2CC[C@H](CN(c3cc(-c4cnn(CCF)c4)ccn3)C(=O)[C@H]3CC[C@H](OC(=O)N4CC(O)C4)CC3)CC2)cc1C [Compound 2.23]
Response line: ≤ 0.05 µM

Prompt line: Report EC50, nothing else, for this molecule: COc1ccc([C@H]2CC[C@H](CN(c3cc(-c4cnn(C(C)C)c4)ccn3)C(=O)[C@H]3CC[C@H](OC(=O)NC(CF)CF)CC3)CC2)cc1C [Compound 2.35]
Response line: ≤ 0.05 µM

Prompt line: Report EC50, nothing else, for this molecule: COc1ccc(C23CCC(CN(c4cc(-c5cnn(C(C)C)c5)ccn4)C(=O)[C@H]4CC[C@H](OC(=O)N5CC(CCO)C5)CC4)(CC2)CC3)cc1C [Compound 4.43]
Response line: ≤ 0.05 µM

Prompt line: Report EC50, nothing else, for this molecule: COc1ccc([C@H]2CC[C@H](CN(c3cccc(-c4cnn(C5CC5)c4)c3)C(=O)[C@H]3CC[C@H](C(C)O)CC3)CC2)cc1C (stereo partly drawn) [Compound 21]
Response line: ≤ 0.05 µM

Prompt line: Report EC50, nothing else, for this molecule: COc1ccc(C23CCC(CN(c4cc(-c5coc(C6CC6)n5)ccn4)C(=O)[C@H]4CC[C@H](NC(C)=O)CC4)(CC2)CC3)cc1C [Compound 9.09]
Response line: ≤ 0.05 µM

###

target: hFXR (Homo sapiens); construct: expressed in transfected cells; host or cells: CV-1 cells; test: In Vitro FXR Assay (TK): TK-ECRE-luc reporter in transfected CV-1 cells; assay type: cell-based; conditions: 18 hrs incubation, luminescence
pEC50: −log10 of the molar value.
Reported values of pEC50 for individual entries

Compound smiles: COc1ccc(C23CCC(CN(c4cc(-c5cnn(C(C)C)c5)ncn4)C(=O)[C@H]4CC[C@H](OC(=O)NCCCO)CC4)(CC2)CC3)cc1C
System under test: hFXR (Homo sapiens)
pEC50: ≥ 7.30

Prompt line: Report pEC50, nothing else, for this compound: COc1ccc([C@H]2CC[C@H](CN(c3cc(-c4cnn(C(C)C)c4)ccn3)C(=O)[C@H]3CC[C@H](OCCCO)CC3)CC2)cc1C
Response line: ≥ 7.30

Prompt line: Report pEC50, nothing else, for this compound: COc1ccc(C23CCC(CN(c4cc(-c5cnn(C6(C)CCC6)c5)ccn4)C(=O)[C@H]4CC[C@H](OC(=O)N5CC(CS(C)(=O)=O)C5)CC4)(CC2)CC3)cc1C
Response line: ≥ 7.30

###

target: hFXR (Homo sapiens, UniProt Q96RI1); assay: In Vitro FXR Assay (TK): TK-ECRE-luc reporter in transfected CV-1 cells; settings: 18 hrs incubation, luminescence
Measurement kind: EC50

Compound smiles: COc1ccc(C23CCC(CN(c4cc(-c5cnc(C(C)C)s5)ccn4)C(=O)[C@H]4CC[C@H](OC(=O)N5CC(OCCO)C5)CC4)(CC2)CC3)cc1C
Measurement kind: EC50
Measurement: ≤ 0.05 µM
//
Compound smiles: COc1ccc([C@H]2CC[C@H](CN(c3cc(-c4cnc(C5CC5)s4)ccn3)C(=O)[C@H]3CC[C@H](OC(=O)N4CCN(C)CC4)CC3)CC2)cc1C
Measurement kind: EC50
Measurement: ≤ 0.05 µM

# ---- query molecule ----
Prompt line: GET EC50 where system = hFXR (Homo sapiens, UniProt Q96RI1) and item = COc1ccc(C23CCC(CN(c4cc(-c5coc(C(C)C)n5)ccn4)C(=O)[C@H]4CC[C@H](OC(=O)NCCCO)CC4)(CC2)CC3)cc1C
Response line: ≤ 0.05 µM

###

Target: hFXR (Homo sapiens, UniProt Q96RI1)
Sequence (Q96RI1 1-486): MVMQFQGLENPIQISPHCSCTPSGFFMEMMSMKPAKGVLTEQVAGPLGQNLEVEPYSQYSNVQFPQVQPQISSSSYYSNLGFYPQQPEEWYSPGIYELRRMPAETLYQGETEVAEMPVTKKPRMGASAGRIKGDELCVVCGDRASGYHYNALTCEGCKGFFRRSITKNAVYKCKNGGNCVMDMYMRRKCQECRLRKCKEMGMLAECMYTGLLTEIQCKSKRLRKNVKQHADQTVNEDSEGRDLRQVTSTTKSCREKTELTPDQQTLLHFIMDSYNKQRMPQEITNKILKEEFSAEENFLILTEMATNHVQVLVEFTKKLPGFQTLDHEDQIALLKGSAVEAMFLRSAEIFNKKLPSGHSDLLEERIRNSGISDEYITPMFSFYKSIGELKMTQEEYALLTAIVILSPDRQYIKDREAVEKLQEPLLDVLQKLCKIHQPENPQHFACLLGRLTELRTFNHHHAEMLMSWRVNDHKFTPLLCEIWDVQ
Sequence (P19793 1-462 partner): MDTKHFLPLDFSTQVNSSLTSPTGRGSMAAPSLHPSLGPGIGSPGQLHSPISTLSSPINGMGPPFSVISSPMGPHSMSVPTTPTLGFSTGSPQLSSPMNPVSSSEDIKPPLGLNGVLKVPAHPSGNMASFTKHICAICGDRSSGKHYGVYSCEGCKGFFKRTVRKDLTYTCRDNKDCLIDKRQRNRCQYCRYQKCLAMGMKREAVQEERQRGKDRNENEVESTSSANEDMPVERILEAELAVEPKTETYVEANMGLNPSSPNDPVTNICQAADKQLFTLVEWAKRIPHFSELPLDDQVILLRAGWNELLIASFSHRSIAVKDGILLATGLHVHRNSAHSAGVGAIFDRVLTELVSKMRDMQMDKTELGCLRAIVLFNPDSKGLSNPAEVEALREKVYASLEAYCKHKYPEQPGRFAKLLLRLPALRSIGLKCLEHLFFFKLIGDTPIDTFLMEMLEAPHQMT
Test: In Vitro FXR Assay (TK): TK-ECRE-luc reporter in transfected CV-1 cells
Details: 18 hrs incubation, luminescence
Reported values of EC50 for individual entries

Recorded EC50, per entry:
Compound: COc1ccc(C23CCC(CN(c4cc(-c5cnn(C6CCC6)c5)ncn4)C(=O)[C@H]4CC[C@H](OC(=O)N5CC(CO)C5)CC4)(CC2)CC3)cc1C [Compound 23.24]
EC50: ≤ 50 nM
//
Compound: COc1ccc([C@H]2CC[C@H](CN(c3cccc(-c4cnn(C(C)C)c4)c3)C(=O)[C@H]3CC[C@H](OC(=O)NCC(C)(F)F)CC3)CC2)cc1C [Compound 5.06]
EC50: ≤ 50 nM

# ---- query compound ----
Prompt line: Report EC50, nothing else, for this compound: COc1ccc(C23CCC(CN(c4cc(-c5cnn(C(C)C)c5)ccn4)C(=O)[C@H]4CC[C@H](OC(=O)NCCCO)CC4)(CC2)CC3)cc1C [Compound 4.07]
Response line: ≤ 50 nM
